Source of measurements: patent US7407941B2

- Test system: Streptococcus pneumoniae ATCC 6301
- ASSAY: In vitro antibacterial activity (MIC)
- Assay type: cell-based
- MEASUREMENT_CONDITIONS: ATCC6301, erythromycin sensitive strain ATCC 6301

>  <COMPOUND>
CC[C@H]1OC(=O)[C@H](C)[C@@H](O[C@H]2C[C@@](C)(OC)[C@@H](O)[C@H](C)O2)[C@H](C)[C@@H](O[C@@H]2O[C@H](C)C[C@H](N(C)C)[C@H]2O)[C@](C)(O)C[C@@H](C)C(=O)[C@H](C)[C@@H](O)[C@]1(C)O [Erythromycin A, reference compound]

>  <ENDPOINT_UNIT>
µg/mL

>  <MIC>
0.025

$$$$
>  <COMPOUND>
CC[C@H]1OC(=O)[C@H](C)[C@@H](O[C@H]2C[C@@](C)(OC)[C@@H](O)[C@H](C)O2)[C@H](C)[C@@H](O[C@@H]2O[C@H](C)C[C@H](N(C)C)[C@H]2O)C(C)(O)C[C@@H](C)C(=O)[C@H](C)C[C@H]1C (stereo partly shown) [11-Deoxyerythromycin B, reference compound]

>  <ENDPOINT_UNIT>
µg/mL

>  <MIC>
0.049

$$$$
>  <COMPOUND>
CC[C@H]1OC(=O)[C@H](C)[C@@H](O[C@H]2C[C@@](C)(OC)[C@@H](O)[C@H](C)O2)[C@H](C)[C@@H](O[C@@H]2O[C@H](C)C[C@H](N(C)C(C)C)[C@H]2O)C(C)(O)C[C@@H](C)C(=O)[C@H](C)C[C@H]1C (stereo partly shown)

>  <ENDPOINT_UNIT>
µg/mL

>  <MIC>
12.5

$$$$
>  <COMPOUND>
CC[C@H]1OC(=O)[C@H](C)[C@@H](O[C@H]2C[C@@](C)(OC)[C@@H](O)[C@H](C)O2)[C@H](C)[C@@H](O[C@@H]2O[C@H](C)C[C@H](N(C)CC(C)C)[C@H]2O)C(C)(O)C[C@@H](C)C(=O)[C@H](C)C[C@H]1C (stereo partly shown)

>  <ENDPOINT_UNIT>
µg/mL

>  <MIC>
200

$$$$
